- STUDY SYSTEM: Cyclin-dependent kinase 7 (Homo sapiens, UniProt P50613);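 note: value comes from a kinome-wide kinase profiling panel in which CDK7 is one member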
- Sequence (P50613 whole entry): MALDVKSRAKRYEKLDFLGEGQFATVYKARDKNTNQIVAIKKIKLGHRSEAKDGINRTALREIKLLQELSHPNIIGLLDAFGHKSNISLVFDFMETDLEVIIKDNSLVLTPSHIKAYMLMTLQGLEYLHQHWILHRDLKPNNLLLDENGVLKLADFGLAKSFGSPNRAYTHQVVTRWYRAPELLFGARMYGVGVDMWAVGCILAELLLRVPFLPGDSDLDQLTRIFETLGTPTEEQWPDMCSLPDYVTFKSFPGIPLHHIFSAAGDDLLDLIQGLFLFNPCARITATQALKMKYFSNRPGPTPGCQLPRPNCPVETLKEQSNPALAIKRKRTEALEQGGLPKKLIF
- Assay type: functional
Active and inactive are the calls of the source.
Classes used: active, inactive

| COMPOUND | ASSIGNED CATEGORY |
| --- | --- |
| CCC1CC(NS(=O)(=O)C2CC2)CC1c1ncc2cnc3[nH]ccc3n12 (centres undefined) | inactive |
| O=C(Nc1cccc(C(F)(F)F)n1)Nc1ccnc2cc(OC(F)F)ccc12 | inactive |
| O=c1[nH]c2cc(Br)cnc2[nH]1 | active |
| O=C(Nc1cccc(C(F)(F)F)n1)Nc1ccnc2cc(Cl)ccc12 | inactive |

----------
- Tested on: Streptococcus sp. 'group A'
- TEST SUMMARY: growth inhibition of control SK(-) GAS strain, dose response, counter-screen for streptokinase expression inhibitor project, luminescence, kanamycin, BacTiterGlo, confirmation (AID 1900)
- Format: functional, organism-based
Active and inactive are the calls of the source.
ATTRIBUTE MEASURED: EC50

| MOLECULE | STUDY SYSTEM | VALUE OBSERVED |
| --- | --- | --- |
| Clc1ccc(SCc2cc(Cl)nc(-c3ccccc3)n2)cc1 | Streptococcus sp. 'group A' | > 150 µM (not active) |
| CC1(C)COCN1S(=O)(=O)c1ccc(C(=O)Nc2nnc(-c3ccc(Cl)s3)o2)cc1 | Streptococcus sp. 'group A' | 0.691 µM (active) |
| COc1ccc(-n2nc(C(=O)c3cccs3)cc(-c3nc4ccccc4[nH]3)c2=N)cc1 | Streptococcus sp. 'group A' | 3.26 µM (active) |
| COc1cccc(/C=N/Nc2nc(Nc3ccc([N+](=O)[O-])cc3)nc(N3CCCC3)n2)c1O | Streptococcus sp. 'group A' | 3.77 µM (active) |
| CC(C)(C)c1ccc(OCC(O)CS(=O)(=O)c2ccccn2)cc1 (stereo not given) | Streptococcus sp. 'group A' | > 150 µM (not active) |
